Tested on: soybean (Glycine max)
Assay: Test B pre-/postemergence
Assay type: in vivo
Conditions: Rate 125 g/ha, Postemergence
readout-label: Plant response rating, Soybean

compound	assay-value
Cc1cnc(-c2ccc(C(F)(F)F)cc2)nc1Cn1cnc(C(F)(F)F)n1 [Compound 11]	7
CCc1cnc(-c2ccc(C(F)(F)F)cc2)nc1Cc1cccc(C(F)(F)F)c1 [Compound 22]	7
Cc1cnc(-c2ccc(OC(F)(F)F)cc2)nc1Cc1cccc(C(F)(F)F)c1 [Compound 16]	3
Cc1cnc(-c2ccc(C(F)(F)F)cc2)nc1Cn1ccc(C(F)(F)C(F)(F)F)n1 [Compound 14]	4
Cc1cnc(-c2ccc(Cl)cc2)nc1Cn1ccc(C(F)(F)F)n1 [Compound 6]	6

Shifting focus to the compound that follows.
Give Plant response rating, Soybean (soybean (Glycine max)) of the following compound: Cc1cnc(-c2ccccc2)nc1Cn1ccc(C(F)(F)F)n1 [Compound 7] 3
